target-entity: FXR (Homo sapiens, UniProt Q96RI1)
Construct: 5 μL of 20 nM FXR-LBD Complete Coregulator buffer G; purchased ThermoFisher PV4833
Sequence (Q96RI1 262-486 limits assumed): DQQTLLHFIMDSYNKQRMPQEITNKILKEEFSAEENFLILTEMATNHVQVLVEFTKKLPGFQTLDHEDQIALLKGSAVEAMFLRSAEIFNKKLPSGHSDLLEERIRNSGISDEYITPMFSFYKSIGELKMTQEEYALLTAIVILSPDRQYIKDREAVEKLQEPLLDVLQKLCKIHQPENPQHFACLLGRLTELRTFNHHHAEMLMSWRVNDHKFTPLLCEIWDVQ
test-method-notes: FXR antagonist screening by TR-FRET (LanthaScreen TR-FRET FXR co-activation assay kit)
Format: biochemical
condition-description: Table 1.2, FXR antagonistic activity; TR-FRET with CDCA; geometric means of at least two independent runs
metric: IC50

>>> print(df.to_string())
                                    compound                       target_entity        result
 0  CCOC(=O)c1sc2ccc(S(=O)(=O)N(CCc3ccc(Cl)cc3)c3ccccc3N3CCN(C(=O)c4sccc4Br)CC3)cc2c1C [Example M10-165]  FXR (Homo sapiens, UniProt Q96RI1)  50 to 100 µM
 1  O=C(O)c1cc2cc(S(=O)(=O)N(CCc3ccccc3)c3ccccc3N3CCN(C(=O)c4sccc4Br)CC3)ccc2s1 [Example F27-S159]  FXR (Homo sapiens, UniProt Q96RI1)  0.1 to 10 µM
 2  CCOC(=O)c1oc2ccc(S(=O)(=O)N(CCc3ccccc3)c3ccccc3N3CCN(C(=O)c4ccc(Cl)s4)CC3)cc2c1C [Example M10-128]  FXR (Homo sapiens, UniProt Q96RI1)  50 to 100 µM
 3  COc1ccc(CCN(c2ccccc2N2CCN(C(=O)c3sccc3Br)CC2)S(=O)(=O)c2ccc3sc(C(=O)O)c(C)c3c2)cc1 [Example F27-S165]  FXR (Homo sapiens, UniProt Q96RI1)  0.1 to 10 µM
 4  CCOC(=O)c1sc2ccc(S(=O)(=O)N(CCc3cccs3)c3ccccc3N3CCN(C(=O)c4sccc4Br)CC3)cc2c1C [Example M10-183]  FXR (Homo sapiens, UniProt Q96RI1)  50 to 100 µM
 5  Cc1c(C(=O)O)oc2ccc(S(=O)(=O)N(CCc3ccccc3)c3ccccc3N3CCN(C(=O)c4ccccc4Cc4ccccc4)CC3)cc12 [Example F27-S134]  FXR (Homo sapiens, UniProt Q96RI1)  0.1 to 10 µM
 6  Cc1c(C(=O)O)oc2ccc(S(=O)(=O)N(CCc3ccccc3)c3ccccc3N3CC4CC3CN4C(=O)c3sccc3Br)cc12 (stereo not shown) [Example F27-S157]  FXR (Homo sapiens, UniProt Q96RI1)  0.1 to 10 µM
 7  CCOC(=O)c1sc2ccc(S(=O)(=O)N(CCc3ccc(C)cc3)c3ccccc3N3CCN(C(=O)c4sccc4Br)CC3)cc2c1C [Example M10-166]  FXR (Homo sapiens, UniProt Q96RI1)  50 to 100 µM
 8  CCOC(=O)c1oc2ccc(S(=O)(=O)N(CCc3ccccc3)c3ccccc3N3CCN(C(=O)c4ccc(C(C)=O)cc4)CC3)cc2c1C [Example M10-115]  FXR (Homo sapiens, UniProt Q96RI1)  50 to 100 µM
 9  Cc1c(C(=O)O)oc2ccc(S(=O)(=O)N(CCc3ccccc3)c3ccccc3N3CCN(C(=O)C4CCCC4)CC3)cc12 [Example F27-S122]  FXR (Homo sapiens, UniProt Q96RI1)  0.1 to 10 µM
10  Cc1csc(C(=O)N2CCN(c3ccccc3N(CCc3ccccc3)S(=O)(=O)c3ccc4oc(C(=O)O)c(C)c4c3)CC2)c1 [Example F27-S140]  FXR (Homo sapiens, UniProt Q96RI1)  0.1 to 10 µM
11  CCOC(=O)c1sc2ccc(S(=O)(=O)N(C)c3ccccc3N3CCN(C(=O)c4sccc4Br)CC3)cc2c1C [Example M10-182]  FXR (Homo sapiens, UniProt Q96RI1)  50 to 100 µM
12  CCOC(=O)c1oc2ccc(S(=O)(=O)N(CCc3ccccc3)c3ccccc3N3CCCN(C(=O)c4sccc4Br)CC3)cc2c1C [Example M10-154]  FXR (Homo sapiens, UniProt Q96RI1)  50 to 100 µM

---

target-entity: FXR (Homo sapiens, UniProt Q96RI1)
Construct: 5 μL of 20 nM FXR-LBD Complete Coregulator buffer G; purchased ThermoFisher PV4833
test-method-notes: FXR antagonist screening by TR-FRET (LanthaScreen TR-FRET FXR co-activation assay kit)
Assay type: biochemical
condition-description: Table 1.1, FXR antagonistic activity; TR-FRET with CDCA; geometric means of at least two independent runs
pIC50: −log10 of the molar value.
metric: pIC50

In [3]: df
Out[3]:
                            smiles_notation  metric        result
0  Cc1c(C(=O)O)oc2ccc(S(=O)(=O)N(CCc3ccccc3)c3ccccc3N3CCN(S(C)(=O)=O)CC3)cc12   pIC50  4.30 to 5.00
1  CCOC(=O)c1oc2ccc(S(=O)(=O)N(CCc3ccccc3)Cc3ccc(Oc4ccccc4)cc3)cc2c1C   pIC50  4.00 to 4.30
2  Cc1c(C(=O)O)oc2ccc(S(=O)(=O)N(CCc3ccccc3)c3ccc(N4CCN(C(=O)N(C)C)CC4)cc3)cc12   pIC50  4.00 to 4.30
3  Cc1c(C(=O)O)oc2ccc(S(=O)(=O)N(CCc3ccccc3)Cc3c(F)cccc3F)cc12   pIC50  4.30 to 5.00
4  CCOC(=O)c1oc2ccc(S(=O)(=O)N(CCc3ccccc3)Cc3ccccc3N3CCN(C(=O)c4ccccc4)CC3)cc2c1C   pIC50  4.00 to 4.30
5  CCOC(=O)c1oc2ccc(S(=O)(=O)N(CCc3ccccc3)Cc3ccc(Br)cc3C(F)(F)F)cc2c1C   pIC50  4.00 to 4.30
6  Cc1c(C(=O)O)oc2ccc(S(=O)(=O)N(CCc3ccccc3)Cc3ccc(/C=C/C(=O)O)cc3)cc12   pIC50  4.00 to 4.30

---

metric: melting point

                                   compound           result
0  Cc1c(C(=O)O)oc2ccc(S(=O)(=O)N(CCc3ccccc3)Cc3cccc(Oc4ccccc4)c3)cc12 [Example F27-S27]         > 183 °C
1  Cc1c(C(=O)O)oc2ccc(S(=O)(=O)N(CCc3ccccc3)Cc3c(F)cccc3F)cc12 [Example F27-S46]    180 to 181 °C
2  Cc1c(C(=O)O)oc2ccc(S(=O)(=O)N(CCc3ccccc3)c3ccc(N4CCN(C)CC4)cc3)cc12 [Example F27-S64]    152 to 153 °C
3  Cc1c(C(=O)O)oc2ccc(S(=O)(=O)N(CCc3ccccc3)Cc3ccccc3N3CCN(Cc4ccccc4)CC3)cc12 [Example F27-S104]    154 to 155 °C
4  Cc1c(C(=O)O)oc2ccc(S(=O)(=O)N(CCc3ccccc3)c3ccc(N4CCN(C(=O)OC(C)(C)C)CC4)c(C(F)(F)F)c3)cc12 [Example F27-S74]    215 to 216 °C
5  Cc1c(C(=O)O)oc2ccc(S(=O)(=O)N(CCc3ccccc3)Cc3ccc(F)cc3Cl)cc12 [Example F27-S56]    145 to 146 °C
6  Cc1c(C(=O)O)oc2ccc(S(=O)(=O)N(CCc3ccccc3)c3ccc(N4CCOCC4)cc3)cc12 [Example F27-S63]  > 380 °C (dec.)

---

target-entity: FXR (Homo sapiens)
Construct: 5 μL of 20 nM FXR-LBD Complete Coregulator buffer G; purchased ThermoFisher PV4833
test-method-notes: FXR antagonist screening by TR-FRET (LanthaScreen TR-FRET FXR co-activation assay kit)
Type: biochemical
condition-description: Table 1.1, FXR antagonistic activity; TR-FRET with CDCA; geometric means of at least two independent runs
Each item that follows carries a reported IC50.
metric: IC50

>>> df
                                    compound  metric        result
 0  CCOC(=O)c1oc2ccc(S(=O)(=O)N(CCc3ccccc3)Cc3ccccc3N3CC[N+](C)(C)CC3)cc2c1C [Example M10-99]    IC50  50 to 100 µM
 1  Cc1c(C(=O)O)oc2ccc(S(=O)(=O)N(CCc3ccccc3)Cc3ccc(C(F)(F)F)cc3C(F)(F)F)cc12 [Example F27-S58]    IC50  50 to 100 µM
 2  CCOC(=O)c1oc2ccc(S(=O)(=O)N(CCc3ccccc3)Cc3cccc(Oc4ccccc4)c3)cc2c1C [Example M4-27]    IC50  50 to 100 µM
 3  CCOC(=O)c1oc2ccc(S(=O)(=O)N(CCc3ccccc3)c3ccc(N4CCN(C(=O)CC(C)(C)C)CC4)cc3)cc2c1C [Example M8-66]    IC50  50 to 100 µM
 4  CCOC(=O)c1oc2ccc(S(=O)(=O)N(CCc3ccccc3)Cc3ccc(CC(=O)OC)cc3)cc2c1C [Example M4-41]    IC50  50 to 100 µM
 5  Cc1c(C(=O)O)oc2ccc(S(=O)(=O)N(CCc3ccccc3)Cc3ccc(Cl)cc3F)cc12 [Example F27-S52]    IC50   10 to 50 µM
 6  CCOC(=O)c1oc2ccc(S(=O)(=O)N(CCc3ccccc3)Cc3cccc(F)c3)cc2c1C [Example M4-20]    IC50  50 to 100 µM
 7  CCOC(=O)c1oc2ccc(S(=O)(=O)N(CCc3ccccc3)Cc3ccccc3Cl)cc2c1C [Example M4-15]    IC50  50 to 100 µM
 8  Cc1c(C(=O)O)oc2ccc(S(=O)(=O)N(CCc3ccccc3)Cc3ccc(C(=O)O)cc3)cc12 [Example F27-S39]    IC50  50 to 100 µM
 9  CCOC(=O)c1oc2ccc(S(=O)(=O)N(CCc3ccccc3)c3ccc(N4CCN(S(C)(=O)=O)CC4)cc3)cc2c1C [Example M8-72]    IC50  50 to 100 µM
10  Cc1c(C(=O)O)oc2ccc(S(=O)(=O)N(CCc3ccccc3)Cc3ccccc3N3CCN(C(=O)OC(C)(C)C)CC3)cc12 [Example F27-S87]    IC50  0.1 to 10 µM
11  CCOC(=O)c1oc2ccc(S(=O)(=O)N(CCc3ccccc3)c3ccc(N4CCN(C(=O)OC(C)(C)C)CC4)c(C(F)(F)F)c3)cc2c1C [Example M8-74]    IC50  50 to 100 µM
12  CCOC(=O)c1oc2ccc(S(=O)(=O)N(CCc3ccccc3)Cc3ccc(C)cc3)cc2c1C [Example M4-31]    IC50  50 to 100 µM
13  Cc1c(C(=O)O)oc2ccc(S(=O)(=O)N(CCc3ccccc3)c3ccccc3N3CCN(C(=O)c4ccccc4)CC3)cc12 [Example F27-S96]    IC50  0.1 to 10 µM
